species: Rattus norvegicus; assay: Positive allosteric modulation of recombinant N-terminal poly-His tagged rat neurolysin using Mca-Pro-Leu- Gly-Pro-D-Lys(DNP)-OH as substrate and measured by fluorescence based assay; settings: filed as positive allosteric modulator
Peptide text beside a SMILES is read from it. * marks the point of attachment. NHPhenethyl = c1ccc(CCN*)cc1
propertyName: A50 (µM)

• N[C@@H](Cc1c[nH]cn1)C(=O)NCCc1ccc(F)cc1 = 27.9

1. N[C@@H](Cc1c[nH]cn1)C(=O)Nc1ccccc1
2. N[C@@H](Cc1cnc[nH]1)C(=O)N[C@@H](Cc1ccccc1)C(=O)O (H-His-Phe-OH)
3. N[C@@H](Cc1c[nH]cn1)C(=O)NCc1ccc2ccccc2c1
4. N[C@@H](Cc1c[nH]cn1)C(=O)N[C@@H](Cc1ccccc1)C(=O)NCCc1ccccc1 (H-His-Phe-NHPhenethyl)
Query: Ascending by A50, please: list the compounds accordingly. Ranked list of labels, please, in the requested order.
Response: 4, 1, 3, 2
(4: 5.4 µM, 1: 7.74 µM, 3: 12.3 µM, 2: 130 µM)
